assay: chemical genetic growth profiling, strain panel (AID 1159580);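 further: tested at 20 µM; growth read once vehicle control cultures reached saturation at 30 °C; 1 = growth at the plate median or of vehicle wells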; conditions: S. cerevisiae deletion strains, growth OD, locus YJL095W, strain BCK1 (second series), stronger effect = lower value
Hit rate of the full screen: of about 5,500 compounds, about 2,000 (36%) were called active. Not shown: some 18% with an inconclusive outcome. The list shows a part of the results.
metric: normalized growth
Answer using only a numeral; do not append any unit.

{"compound": "COC1=CC(=O)C[C@@H](C)[C@]12Oc1c(Cl)c(OC)cc(OC)c1C2=O", "normalized growth": 0.977}

response.value for C=C(C)C1CNC(C(=O)O)C1CC(=O)O (stereo unspecified) (field: normalized growth) = 0.99

response.value for CCCCCCCCCCCCCCCC[N+](C)(C)C (field: normalized growth) = 0.0547

response.value for CN1CCc2cc3c(cc2[C@H]1C1OC(=O)c2c1ccc1c2OCO1)OCO3 (stereo partly specified) (field: normalized growth) = 0.988

response.value for CS(=O)(=O)c1ccc(C2=C(c3ccccc3)C(=O)OC2)cc1 (field: normalized growth) = 0.977

response.value for ClC1=C(Cl)C2(Cl)C3C4C=CC(C4)C3C1(Cl)C2(Cl)Cl (stereo unspecified) (field: normalized growth) = 0.994

====

experiment: chemical genetic growth profiling, strain panel (AID 1159580);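 further: tested at 20 µM; growth read once vehicle control cultures reached saturation at 30 °C; 1 = growth at the plate median or of vehicle wells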; conditions: S. cerevisiae deletion strains, growth OD, locus YHR030C, strain SLT2
Out of some 5,500 compounds screened, about 2,000 (36%) were called active. About 18% were inconclusive and are not listed. No stated cut-off is given here; in the data, active means normalized growth mostly below about 0.91 (no sharp cut-off); inconclusive means no clear call, values can overlap the other calls; inactive means mostly above about 0.92. Some of the results follow.
Output constraint: value belongs to active, inactive

Solved cases (6 shown):
{"compound": "Clc1cccc(Cl)c1CSC1=NCCCN1C1CCCCC1", "class_name": "inactive"}
{"compound": "CC(N)C(=O)NC(Cc1ccccc1)C(=O)O (centres undefined)", "class_name": "inactive"}
{"compound": "COc1cc2c(cc1OC)C1C(=O)c3c(OC)cc4c(c3OC1CO2)CCC(C)(C)O4 (centres undefined)", "class_name": "inactive"}
{"compound": "CCOC(=O)C(=CNc1cccc(C#N)c1)C(=O)OCC", "class_name": "inactive"}
{"compound": "CCOC(=O)c1c(C)cc(O)c(C)c1O", "class_name": "inactive"}
{"compound": "Cc1ccc(NC(=S)NNC(C)(C)C)cc1", "class_name": "inactive"}

Please let me know the test result on file for COc1cccc(OC)c1C(C)(O)C(OC)OC (centres undefined) .
inactive

Please let me know the test result on file for CCO/C=C1\SC(=S)N(CCc2ccccc2)C1=O .
active

Please let me know the test result on file for CCOC(=O)C(=O)C1(C(=O)OCC)Oc2cc(OC)cc(OC)c2C(=O)C1c1ccccc1 (centres undefined) .
inactive

====

normalized growth values for the compounds below.
experiment: chemical genetic growth profiling, strain panel (AID 1159580);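 further: tested at 20 µM; growth read once vehicle control cultures reached saturation at 30 °C; 1 = growth at the plate median or of vehicle wells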; conditions: S. cerevisiae deletion strains, growth OD, locus YER015W, strain faa2, stronger effect = lower value
Screen size: about 5,500 compounds; about 2,000 (36%) were called active. Not shown: some 18% with an inconclusive outcome. This is one part of the list.
Answer using only a numeral; do not append any unit.

Example results:
{"compound": "CC(=O)OCC(=O)[C@@]1(O)CCC2C3CCC4=CC(=O)CC[C@]4(C)C3C(=O)C[C@@]21C (stereo partly specified)", "metric": "normalized growth", "data_value": 0.992}
{"compound": "COc1cc2c(cc1OC)C(=O)OC2", "metric": "normalized growth", "data_value": 0.988}
{"compound": "CC(N)CCCC(C)(C)O (stereo unspecified)", "metric": "normalized growth", "data_value": 0.982}
{"compound": "CC1CC2C3CCC4=CC(=O)C=C[C@]4(C)[C@@]3(F)[C@@H](O)C[C@]2(C)[C@@]1(O)C(=O)CO (stereo partly specified)", "metric": "normalized growth", "data_value": 0.991}

response.value for CCOC(=O)CCC(=O)O[C@H]1[C@H](O[C@@H]2[C@@H](C)[C@H](O[C@H]3C[C@@](C)(OC)[C@@H](O)[C@H](C)O3)[C@@H](C)C(=O)O[C@H](CC)[C@@](C)(O)[C@H](O)[C@@H](C)C(=O)[C@H](C)C[C@@]2(C)O)O[C@H](C)C[C@@H]1N(C)C (field: normalized growth) = 0.986

response.value for Cc1cccc(C)c1OCC(C)N (stereo unspecified) (field: normalized growth) = 1.02

response.value for CS(=O)(=O)c1ccc(C2=C(c3ccccc3)C(=O)OC2)cc1 (field: normalized growth) = 0.98

response.value for CCC(=O)O[C@H]1[C@H](O[C@@H]2[C@@H](C)[C@H](O[C@H]3C[C@@](C)(OC)[C@@H](O)[C@H](C)O3)[C@@H](C)C(=O)O[C@H](CC)[C@@](C)(O)[C@H](O)[C@@H](C)C(=O)[C@H](C)C[C@@]2(C)O)O[C@H](C)C[C@@H]1N(C)C (field: normalized growth) = 0.975

response.value for CCCCCCCCNC(C)C(O)c1ccc(SC(C)C)cc1 (stereo unspecified) (field: normalized growth) = 0.0595
